Data provenance is PubChem BioAssay AID2060507.

Test system: 519858-162-T-J1-PDC complex spheroid viability;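 further: spheroids exposed to compounds for 7 days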
protocolText: Anticancer human tumor 519858-162-T-J1-PDC patient-derived colon adenocarcinoma cell line growth inhibition [GQUAD]
condition: second compound 3.16 µM; first compound 0.1 µM; stronger effect = lower value
So basically: is viability, T/C under 70%? Then Satisfied. Not under? Then Not satisfied.

Query: Consider the compound COc1cc(C2c3cc4c(cc3C(OC3OC5COC(C)OC5C(O)C3O)C3COC(=O)C23)OCO4)cc(OC)c1O (stereo not given) + Cc1[nH]c2ccc(F)cc2c1-c1nc2c3cccnc3c3ncccc3c2[nH]1 . Is its viability, T/C strictly less than 70%?
Result: Not satisfied

Query: Consider the compound COc1ccc([C@@H](O)c2cc(-c3ncnc4cc(N5CCOCC5)ccc34)c(F)cc2Cl)nn1 + Cc1cnc(CNC(=O)c2c(=O)c3ccc(N4CCCN(C)CC4)nc3n3c2sc2ccccc23)cn1 . Is its viability, T/C strictly less than 70%?
Result: Satisfied

Query: Consider the compound CC(=O)O[C@H]1C(=O)[C@@]2(C)[C@H]([C@H](OC(=O)c3ccccc3)[C@]3(O)C[C@H](OC(=O)[C@H](O)[C@@H](NC(=O)c4ccccc4)c4ccccc4)C(C)=C1C3(C)C)[C@]1(OC(C)=O)CO[C@@H]1C[C@@H]2O + Cc1cnc(CNC(=O)c2c(=O)c3ccc(N4CCCN(C)CC4)nc3n3c2sc2ccccc23)cn1 . Is its viability, T/C strictly less than 70%?
Result: Satisfied

Shifting focus to the compound that follows.
Query: Consider the compound CC1COCCN1c1cc(C2(O)CC3CCC(C2)O3)c2cnn(-c3ccn[nH]3)c2n1 (stereo not given) + CN(C)c1ccc(Nc2c3ccc(NC(=O)CCN4CCCC4)cc3nc3cc(NC(=O)CCN4CCCC4)ccc23)cc1 . Is its viability, T/C strictly less than 70%?
Result: Satisfied
